Cited source: patent US11685723B2

Exercise: for every item that follows, state its recorded plasma t0.5.
methodDescription: In vivo pharmacokinetics in mice (intravenous administration)
particulars: CD-1 mice, 2.5 mg/kg
Field format: number, assumed h, no unit text.

Kindly note the recorded plasma t0.5 for [2H]C([2H])([2H])OC(=O)N/C=C/CCC(C)c1cc(O)c(C(=O)/C(C)=C/c2cnc(Oc3ccc(F)cc3)s2)c(=O)o1 (stereo not drawn) , which is 3.0

Kindly note the recorded plasma t0.5 for `[2H]C([2H])([2H])OC(=O)N/C=C/CCCc1cc(O)c(C(=O)/C(C)=C/c2cnc(Oc3ccc(F)c(Cl)c3)s2)c(=O)o1` , which is 1.8

Kindly note the recorded plasma t0.5 for `[2H]C([2H])([2H])OC(=O)N/C=C/CCCc1cc([O-])c(C(=O)/C(C)=C/c2cnc(Oc3ccc(F)cc3)s2)c(=O)o1.[Na+]` , which is 3.9

Kindly note the recorded plasma t0.5 for `COC(=O)N/C=C/CCCc1cc(O)c(C(=O)/C(C)=C/c2sc(Oc3ccc(F)cc3)nc2C)c(=O)o1` , which is 2.5

Kindly note the recorded plasma t0.5 for COC(=O)N/C=C/CCC(C)c1cc(O)c(C(=O)/C(C)=C/c2sc(Oc3ccc(F)cc3)nc2C)c(=O)o1 (stereo not drawn) , which is 2.7

Kindly note the recorded plasma t0.5 for `[2H]C([2H])([2H])OC(=O)N/C=C/CCCc1cc(O)c(C(=O)/C(C)=C/c2sc(Oc3ccc(F)cc3)nc2C)c(=O)o1` , which is 2.6
